target: human PAH with the R408W mutation (Homo sapiens, UniProt P00439, R408W); construct: expressed in transfected cells; assay: Cell Based Phenylalanine Flux Assay; conditions: A375 cells expressing R408W PAH; 24 hrs with compound, then 20 μM sepiapterin and 800 μM 13C9,15N-Phenylalanine for 4 hours; 13C-Tyrosine in media by LC-MS; average where tested multiple times; read-out: AC50
Sequence (P00439 whole entry R408W): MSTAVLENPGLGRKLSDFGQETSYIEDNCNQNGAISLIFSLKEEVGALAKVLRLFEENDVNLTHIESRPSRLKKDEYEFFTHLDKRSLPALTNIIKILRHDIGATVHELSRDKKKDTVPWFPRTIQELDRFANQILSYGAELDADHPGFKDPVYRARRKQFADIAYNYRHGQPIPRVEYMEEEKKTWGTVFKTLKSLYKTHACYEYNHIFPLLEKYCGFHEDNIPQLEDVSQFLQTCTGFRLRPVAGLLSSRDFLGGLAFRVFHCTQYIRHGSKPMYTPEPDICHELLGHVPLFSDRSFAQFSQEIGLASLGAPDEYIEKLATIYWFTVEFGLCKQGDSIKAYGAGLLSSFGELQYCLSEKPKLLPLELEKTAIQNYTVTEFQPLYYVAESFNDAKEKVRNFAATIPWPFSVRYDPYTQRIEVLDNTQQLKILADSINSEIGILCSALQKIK
Parameter: AC50

Cn1cncc1-c1nnc(C(=O)N2CCc3[nH]cnc3[C@H]2c2cc3cccc(C(F)(F)F)n3n2)o1 (single isomer, unassigned)    1 to 5 µM
FC1(F)CC(c2nnc(N3CCc4[nH]cnc4[C@H]3c3cc4c(C(F)(F)F)cccn4n3)o2)C1 (single isomer, unassigned)    1 to 5 µM
O=C(c1cnn(-c2ccccn2)c1Cl)N1CCc2[nH]cnc2[C@@H]1c1cc2ccccn2n1 (single isomer, unassigned)    > 5 µM
Cn1cnc(-c2nnc(C(=O)N3CCc4[nH]cnc4C3c3cc4cccc(C(F)F)n4n3)o2)c1 (stereo not drawn)    1 to 5 µM
FC1(F)CC(c2nnc(N3CCc4[nH]cnc4C3c3cc4ccccn4n3)o2)C1 (single isomer, unassigned) [4S enantiomer of 2-(3,3-difluorocyclobutyl)-5-[4-{pyrazolo{1]    > 5 µM
CC(C)(O)c1noc(C(=O)N2CCc3[nH]cnc3[C@H]2c2cc3ccccn3n2)n1 (single isomer, unassigned)    > 5 µM

---

target: human PAH with the R408W mutation (Homo sapiens, UniProt P00439, R408W); construct: expressed in transfected cells; experiment: Cell Based Phenylalanine Flux Assay; settings: A375 cells expressing R408W PAH; 24 hrs with compound, then 20 μM sepiapterin and 800 μM 13C9,15N-Phenylalanine for 4 hours; 13C-Tyrosine in media by LC-MS; average where tested multiple times; read-out: AC50
Parameter: AC50

COc1cccn2nc(C3c4nc[nH]c4CCN3C(=O)c3nnc(C(C)(C)O)o3)cc12 (stereo not shown)    > 5 µM
Cn1cc(-c2nnc(N3CCc4[nH]cnc4[C@H]3c3cc4c(C(F)(F)F)cccn4n3)o2)cn1 (single isomer, unassigned)    1 to 5 µM
FC(F)c1cccn2nc([C@H]3c4nc[nH]c4CCN3c3nnc(-c4cccnc4)o3)cc12 (single isomer, unassigned)    > 5 µM
Cn1nc(C(F)F)cc1C(=O)N1CCc2[nH]cnc2[C@@H]1c1cc2ccccn2n1 (single isomer, unassigned)    > 5 µM
FC(F)(F)c1cccn2nc([C@@H]3c4nc[nH]c4CCN3c3nnc(-c4cccnc4)o3)cc12 (single isomer, unassigned)    1 to 5 µM
Fc1cccc2cc([C@@H]3c4nc[nH]c4CCN3c3ncccn3)nn12 (single isomer, unassigned)    1 to 5 µM
COCc1ccc2c(C(=O)N3CCc4[nH]cnc4[C@H]3c3cc4ccccn4n3)cnn2c1 (single isomer, unassigned)    1 to 5 µM

---

biological target: human PAH with the R408W mutation (Homo sapiens, UniProt P00439, R408W); construct: expressed in transfected cells; assay: Cell Based Phenylalanine Flux Assay; conditions: A375 cells expressing human R408W PAH; 24 hrs compound incubation; 13C-Tyrosine by LC-MS; average where tested multiple times; read-out: AC50
Reported AC50 values follow for various compounds
Parameter: AC50

Cc1cccn2nc([C@H]3c4nc[nH]c4CCN3C(=O)c3cnco3)cc12 [Example 769]    > 5000 nM
O=C(c1nnc(-c2cnccn2)o1)N1CCc2[nH]cnc2[C@H]1c1cc2ccccn2n1 [Example 1362]    500 to 1000 nM
C[C@H](O)c1nc(C(F)F)c(C(=O)N2CCc3[nH]cnc3[C@H]2c2cc3c(F)cccn3n2)o1 [Example 712]    < 500 nM
O=C(c1oc(C2(O)CC2)nc1C(F)F)N1CCc2[nH]cnc2[C@@H]1c1cc2c(Cl)cccn2n1 [Example 705]    1000 to 5000 nM
O=C(c1nnc(-c2ncccc2F)o1)N1CCc2[nH]cnc2[C@H]1c1cc2c(F)cccn2n1 [Example 791]    < 500 nM
Cn1nc(Cl)cc1C(=O)N1CCc2[nH]cnc2[C@@H]1c1cc2ccccn2n1 [Example 681]    > 5000 nM
Cn1ccc(-c2nnc(C(=O)N3CCc4[nH]cnc4[C@@H]3c3cc4c(C(F)(F)F)cccn4n3)o2)n1 (single isomer, unassigned) [Example 837]    > 5000 nM
Cc1ncccc1-c1nnc(C(=O)N2CCc3[nH]cnc3[C@@H]2c2cc3ccccn3n2)o1 [Example 1365]    > 5000 nM

---

biological target: human PAH with the R408W mutation (Homo sapiens, UniProt P00439, R408W); construct: expressed in transfected cells; assay: Cell Based Phenylalanine Flux Assay; conditions: A375 cells expressing human R408W PAH; 24 hrs with compound, then sepiapterin and 13C9,15N-Phenylalanine for 4 hours; 13C-Tyrosine by LC-MS; average where tested multiple times; read-out: AC50
Reported AC50 values follow for various molecules
Parameter: AC50

Cc1cccn2nc([C@@H]3c4nc[nH]c4CCN3C(=O)c3nc(C(F)F)nn3C)cc12    < 500 nM
CC(C)c1cccn2nc([C@@H]3c4nc[nH]c4CCN3c3nnc(-c4cnccn4)o3)cc12    500 to 1000 nM
FC(F)Oc1cccn2nc([C@@H]3c4nc[nH]c4CCN3c3cnccn3)cc12    < 500 nM
Cc1cccc(-c2nnc(N3CCc4[nH]cnc4[C@@H]3c3cc4ccccn4n3)o2)n1    > 5000 nM
Cc1nn(C)cc1-c1nnc(C(=O)N2CCc3[nH]cnc3[C@H]2c2cc3c(C(F)F)cccn3n2)o1    < 500 nM
Cc1nnc(C(=O)N2CCc3[nH]cnc3[C@H]2c2cc3c(OC(F)(F)F)cccn3n2)o1    1000 to 5000 nM
O=C(c1ocnc1C1CC1)N1CCc2[nH]cnc2[C@@H]1c1cc2c(C(F)F)cccn2n1    1000 to 5000 nM
Cc1ncccc1-c1nnc(N2CCc3[nH]cnc3[C@H]2c2cc3c(C(F)F)cccn3n2)o1    1000 to 5000 nM

---

Reported AC50 values follow for various molecules
biological target: human PAH with the R408W mutation (Homo sapiens, UniProt P00439, R408W); construct: expressed in transfected cells; experiment: Cell Based Phenylalanine Flux Assay; conditions: A375 cells expressing human R408W PAH; 24 hrs with compound, then sepiapterin and 13C9,15N-Phenylalanine for 4 hours; 13C-Tyrosine by LC-MS; average where tested multiple times; read-out: AC50
Parameter: AC50

O=C(c1nnc(-c2ccn(C(F)(F)F)n2)o1)N1CCc2[nH]cnc2[C@@H]1c1cc2c(F)cccn2n1    1000 to 5000 nM
Cc1c(-c2ncc(C(=O)N3CCc4[nH]cnc4[C@@H]3c3cc4c(C(F)F)cccn4n3)o2)cnn1C    > 5000 nM
Fc1cccn2nc([C@H]3c4nc[nH]c4CCN3c3nnc(C(F)(F)F)o3)cc12    > 5000 nM
Clc1cccn2nc([C@H]3c4nc[nH]c4CCN3c3nnc(-c4cnccn4)o3)cc12    > 5000 nM
Cc1nnc(C(=O)N2CCc3[nH]cnc3[C@@H]2c2cc3c(OC(F)(F)F)cccn3n2)o1    > 5000 nM
O=C(c1cnn2cc(-c3ccccn3)ccc12)N1CCc2[nH]cnc2[C@H]1c1cc2ccccn2n1    < 500 nM
O=C(c1nnc(C2CCC2)o1)N1CCc2[nH]cnc2[C@H]1c1cc2c(Cl)cccn2n1    < 500 nM
Cc1nnc(C(=O)N2CCc3[nH]cnc3[C@H]2c2cc3c(C4CC4)cccn3n2)o1    1000 to 5000 nM
Cn1ccc(-c2ccc3c(C(=O)N4CCc5[nH]cnc5[C@H]4c4cc5ccccn5n4)cnn3c2)n1    500 to 1000 nM
Cc1cccnc1-c1nnc(N2CCc3[nH]cnc3[C@H]2c2cc3c(Cl)cccn3n2)o1    < 500 nM
O=C(c1nnc(-c2ccn(C(F)(F)F)n2)o1)N1CCc2[nH]cnc2[C@H]1c1cc2c(Cl)cccn2n1    < 500 nM
Cc1cccn2nc([C@H]3c4nc[nH]c4CCN3C(=O)c3nc4ccccc4o3)cc12    > 5000 nM
O=C(c1nnc(-c2cccnc2)o1)N1CCc2[nH]cnc2[C@@H]1c1cc2c(C(F)F)cccn2n1    > 5000 nM
CC(C)c1cccn2nc([C@@H]3c4nc[nH]c4CCN3c3ccc(C(F)(F)F)cn3)cc12    < 500 nM
Cc1cccc2cc([C@H]3c4nc[nH]c4CCN3c3nnc(C(C)(F)F)o3)nn12    > 5000 nM
O=C(c1nnc(-c2cnccn2)o1)N1CCc2[nH]cnc2[C@@H]1c1cc2c(C(F)F)cccn2n1    1000 to 5000 nM

---

target: human PAH with the R408W mutation (Homo sapiens, UniProt P00439, R408W); construct: expressed in transfected cells; test: Cell Based Phenylalanine Flux Assay; settings: A375 cells expressing human R408W PAH; 24 hrs with compound, then sepiapterin and 13C9,15N-Phenylalanine for 4 hours; 13C-Tyrosine by LC-MS; average where tested multiple times; read-out: AC50;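 also: Ten-point dose curve from 2-fold serial dilutions, run in duplicate at 0.5% DMSO final, tracer step used 20 µM sepiapterin and 800 µM labeled phenylalanine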
Reported AC50 values follow for various compounds
Parameter: AC50

O=C(c1nnc(-c2cnccn2)o1)N1CCc2[nH]cnc2[C@H]1c1cc2cccc(C(F)F)n2n1 [Example 1535]    500 to 1000 nM
CC(C)c1nnc(C(=O)N2CCc3[nH]cnc3[C@@H]2c2cc3c(F)cccn3n2)o1 [Example 1453]    > 5000 nM
Cc1cccn2nc([C@H]3c4nc[nH]c4CCN3C(=O)c3oc(-c4cnn(C)c4)nc3C3CC3)cc12 [Example 2075]    1000 to 5000 nM
O=C(c1cnc(C2CC2)o1)N1CCc2[nH]cnc2C1c1cc2c(F)cccn2n1 (stereo in doubt) [Example 2098]    < 500 nM
CC(C)c1cccn2nc([C@@H]3c4nc[nH]c4CCN3C(=O)c3nnc(-c4ncccc4F)o3)cc12 [Example 1906]    < 500 nM
Cc1cccnc1-c1nnc(N2CCc3[nH]cnc3[C@H]2c2cc3cccc(C(F)F)n3n2)o1 [Example 2352]    500 to 1000 nM
Cc1ncccc1-c1nnc(N2CCc3[nH]cnc3[C@H]2c2cc3c(C(F)(F)F)cccn3n2)o1 [Example 2208]    500 to 1000 nM
Cc1cccc2cc([C@@H]3c4nc[nH]c4CCN3C(=O)c3nnc(C(C)C)o3)nn12 [Example 1490]    500 to 1000 nM
O=C(c1nnc(C2CC2)o1)N1CCc2[nH]cnc2[C@H]1c1cc2c(OC(F)(F)F)cccn2n1 [Example 1724]    < 500 nM
O=C(c1cnc(-c2cnccn2)o1)N1CCc2[nH]cnc2[C@@H]1c1cc2c(C(F)F)cccn2n1 [Example 2243]    > 5000 nM
O=C(c1nnc(-c2ccccn2)o1)N1CCc2[nH]cnc2[C@@H]1c1cc2cccc(C(F)F)n2n1 [Example 1420]    > 5000 nM
Cc1cccn2nc([C@H]3c4nc[nH]c4CCN3c3ccccc3)cc12 [Example 2310]    1000 to 5000 nM
CCc1cccn2nc([C@@H]3c4nc[nH]c4CCN3C(=O)c3nnc(-c4cnn(C)c4)o3)cc12 [Example 1924]    < 500 nM
CC(C)c1cccn2nc([C@@H]3c4nc[nH]c4CCN3C(=O)c3nnc(-c4cnn(C(F)F)c4)o3)cc12 [Example 1936]    < 500 nM
Cc1cc(-c2nnc(C(=O)N3CCc4[nH]cnc4[C@H]3c3cc4cccc(F)n4n3)o2)nn1C [Example 1565]    < 500 nM
